Assay: Inhibition of bovine brain PDE1 using fluorescent labeled cGMP as substrate after 15 mins by IMAP assay
Design: species or system Bos taurus
measured-property: Ki (nM)

{"columns": ["molecule", "val"],
 "data": [
  ["CN1C(=O)c2c(nn(Cc3ccc(-c4cccc(F)n4)cc3)c2Nc2ccncc2)N2C1=N[C@@H]1CCC[C@@H]12", 31]
]}

[A] CN1C(=O)c2c(nn(Cc3ccc(-c4ccccc4)cc3)c2Nc2ccccc2)N2CC(C3CCOC3)N=C12 (stereo not given)
[B] CNc1c2c(nn1Cc1ccc(-c3cccc(F)n3)cc1)N1C(=N[C@@H]3CCC[C@@H]31)N(C)C2=O
INPUT: For the pair A and B , which member has the lower Ki number? Lab log: write the label of the selected item as the result.
OUTPUT: A

[I] CN1C(=O)c2c(nn(Cc3ccc(-c4cccc(F)n4)cc3)c2Nc2ccccc2)N2C1=N[C@@H]1CCC[C@@H]12
[II] CN1C(=O)c2c(nn(Cc3ccc(C(F)(F)F)nc3)c2Nc2ccccc2)N2C1=N[C@@H]1CCC[C@@H]12
INPUT: For the pair I and II , which member has the lower Ki number? Lab log: write the label of the selected item as the result.
OUTPUT: I
(I: 0.15 nM, II: 1.9 nM)

---

Assay: Selectivity ratio of Ki for recombinant full lenght human PDE4A to bovine brain PDE1
measured-property: Ratio Ki

Consider the reported Ratio Ki for these compounds:
{"columns": ["compound", "Ratio Ki"],
 "data": [
  ["CN1C(=O)c2c(nn(Cc3ccc(C(F)(F)F)cc3)c2Nc2ccc(F)cc2)N2C1=N[C@@H]1CCC[C@@H]12", 667],
  ["CN1C(=O)c2c(nn(Cc3ccc(-c4cccc(F)n4)cc3)c2Nc2ccncc2)N2C1=N[C@@H]1CCC[C@@H]12", 12],
  ["CN1C(=O)c2c(nn(Cc3ccc(-c4ccccc4)cc3)c2Nc2ccccc2)N2CC(C)(C)CN=C12", 2060],
  ["C[C@H]1CN=C2N(C)C(=O)c3c(nn(Cc4ccc(-c5ccccc5)cc4)c3Nc3ccccc3)N21", 3750],
  ["CN1C(=O)c2c(nn(Cc3ccc(-c4cccc(F)n4)cc3)c2Oc2ccc(F)cc2)N2C1=N[C@@H]1CCC[C@@H]12", 33]
]}

[P] CN1C(=O)c2c(nn(Cc3ccc(C4CCCN4)cc3)c2Nc2ccccc2)N2C1=N[C@@H]1CCC[C@@H]12 (some centres not stated)
[Q] CN1C(=O)c2c(nn(Cc3ccc(-c4cccc(F)n4)cc3)c2N)N2C1=N[C@@H]1CCC[C@@H]12
INPUT: I'd appreciate it if you could identify which of P and Q has the greater Ratio Ki. Lab log: write the label of the selected item as the result.
OUTPUT: P

---

Test: Lipophilicity, logD of compound at pH 1.7
Assay type: physicochemical
Conditions: buffer
measured-property: logD

{"columns": ["molecular-string", "logD"],
 "data": [
  ["CN1C(=O)c2c(nn(Cc3ccc(-c4cccc(F)n4)cc3)c2Sc2ccccc2)N2C1=N[C@@H]1CCC[C@@H]12", 2.49]
]}

[1] CN1C(=O)c2c(nn(Cc3ccc(-c4cccc(F)n4)cc3)c2Oc2ccccc2)N2C1=N[C@@H]1CCC[C@@H]12
[2] CN1C(=O)c2c(nn(Cc3ccc(-c4ccccc4)cc3)c2Nc2ccccc2)N2C1=N[C@@H]1CCC[C@@H]12
[3] CN1C(=O)c2c(nn(Cc3ccc(S(N)(=O)=O)cc3)c2Nc2ccccc2)N2C1=N[C@@H]1CCC[C@@H]12
INPUT: Thanks in advance: please rank these 3 entries by logD, highest to lowest. Enter labels, ranked according to the request.
OUTPUT: 2, 1, 3

Data origin, for the record: ChEMBL document CHEMBL3769405
